Each recorded value in this set is attributed to PubChem BioAssay (NCI).

test system: NCI-H23 lung; test: NCI-60 one-dose screen, 48 h; details: 10 µM unless noted
Compounds without any hit were thinned out: in the full panel of roughly 83,000, 20% have a hit. Activity calls are given as the source filed them. The calls were made as follows: active = growth percent below 10; inactive = the rest.
Returns: one label drawn from active, inactive

Worked set:
C[C@]12CC[C@@H]3c4cc(OC(F)F)c(O)cc4CC[C@H]3[C@@H]1CC[C@@H]2OS(N)(=O)=O | active
NNC(=O)c1nc(N)n(-c2ccc(S(N)(=O)=O)cc2)n1 | inactive

Inquiry: Any idea what this test logged for O=c1[nH]ccc2nc(N3CCC(O)CC3)nc(Nc3ccc(N4CCOCC4)cc3)c12 ?
Reply text: inactive

Inquiry: Record request — test call for COc1nc2c(c(=O)n1C)CN(c1ccccc1)C(=O)CN2C
Reply text: inactive

Inquiry: Lab log entry: COc1ccccc1N1C(=O)/C(=C/C2=Cc3ccccc3OC2)SC1=S — outcome as called in the assay?
Reply text: inactive
